Molecular target: CYP3A4 (Homo sapiens)
Construct: purchased Fisher Scientific, Waltham, MA; host or cells: insect cells (supersomes)
Sequence (P08684 whole entry): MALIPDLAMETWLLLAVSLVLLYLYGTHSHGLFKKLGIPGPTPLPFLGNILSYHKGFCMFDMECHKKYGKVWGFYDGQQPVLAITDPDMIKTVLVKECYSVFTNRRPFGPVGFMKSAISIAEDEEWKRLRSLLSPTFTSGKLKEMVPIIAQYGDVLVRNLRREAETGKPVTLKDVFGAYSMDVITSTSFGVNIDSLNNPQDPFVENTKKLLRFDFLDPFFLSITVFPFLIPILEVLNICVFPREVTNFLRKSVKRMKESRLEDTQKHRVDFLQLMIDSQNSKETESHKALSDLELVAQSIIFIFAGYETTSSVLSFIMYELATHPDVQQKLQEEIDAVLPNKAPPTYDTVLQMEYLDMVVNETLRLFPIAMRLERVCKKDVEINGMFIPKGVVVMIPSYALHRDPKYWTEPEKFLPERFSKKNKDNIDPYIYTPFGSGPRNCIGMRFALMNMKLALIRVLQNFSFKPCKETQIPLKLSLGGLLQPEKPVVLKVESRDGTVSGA
Assay: CYP450 3A4 inhibition
Type: in vitro ADME
Settings: recombinant CYP3A4 expressed in insect supersomes, probe testosterone, expressed enzyme, testosterone substrate
MEASURE: IC50

// query IC50 value for entry CC1=N/C(=C\c2ccc(C)o2)C(=O)N1c1ccc(CC(=O)NCc2ccccc2)cc1
> 10 µM

----------
Tested on: NB4
Experiment: CellTiter-Blue cell viability assay, NB4
Type: cell-based, human
Details: 48 h; mean of triplicates
MEASURE: IC50 (nM)
Express the result in nM but write the number alone.

Recorded IC50 for COc1ccc(/C=C2\N=C(C)N(c3ccc(CC(=O)NCc4ccccc4)cc3)C2=O)cc1 [KIM-161, reference compound] , please?
148
